Target Or Test System: Adenosine receptor A2b (Homo sapiens)
Sequence (P29275 whole entry): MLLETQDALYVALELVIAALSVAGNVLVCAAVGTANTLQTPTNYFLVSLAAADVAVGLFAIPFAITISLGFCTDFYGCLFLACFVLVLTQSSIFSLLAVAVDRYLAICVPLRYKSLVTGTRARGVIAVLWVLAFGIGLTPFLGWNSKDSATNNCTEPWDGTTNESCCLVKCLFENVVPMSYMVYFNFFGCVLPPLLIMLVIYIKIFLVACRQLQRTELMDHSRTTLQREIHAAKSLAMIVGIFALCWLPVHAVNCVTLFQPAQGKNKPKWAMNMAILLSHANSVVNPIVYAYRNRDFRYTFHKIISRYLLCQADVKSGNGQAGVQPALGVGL
Experimental Protocol: Displacement of [3H]DPCPX from human adenosine A2B receptor expressed in HEK293 cell membranes incubated for 30 mins by scintillation counting method
Parameters: species or system Cell membrane
pKi: −log10 of the molar value.

{"columns": ["Molecule", "Target Or Test System", "pKi"],
 "data": [
  ["CC1=C(C(=O)OCC2CCC2)C(c2cccs2)NC(=O)N1 (racemic)", "Adenosine receptor A2b (Homo sapiens)", 5.55],
  ["CCC(C)OC(=O)C1=C(C)NC(=O)NC1c1ccoc1 (racemic)", "Adenosine receptor A2b (Homo sapiens)", 6.70],
  ["CC1=C(C(=O)CC(C)C)C(c2ccsc2)NC(=O)N1 (racemic)", "Adenosine receptor A2b (Homo sapiens)", 6.00],
  ["CC1=C(C(=O)OCC2CCC2)C(c2ccoc2)NC(=O)N1 (racemic)", "Adenosine receptor A2b (Homo sapiens)", 6.13],
  ["CC1=C(C(=O)OC(C)(C)C)C(c2ccoc2)NC(=S)N1 (racemic)", "Adenosine receptor A2b (Homo sapiens)", 5.72],
  ["CC1=C(c2ncc(C)o2)C(c2ccco2)NC(=O)N1 (racemic)", "Adenosine receptor A2b (Homo sapiens)", 6.04],
  ["CC1=C(C(=O)OCc2ccccc2)C(c2ccsc2)NC(=O)N1C (racemic)", "Adenosine receptor A2b (Homo sapiens)", 5.34],
  ["CCCOC(=O)C1=C(C)NC(=O)NC1c1ccoc1 (racemic)", "Adenosine receptor A2b (Homo sapiens)", 5.92],
  ["CC1=C(C(=O)OC2CCCC2)C(c2ccco2)NC(=O)N1 (racemic)", "Adenosine receptor A2b (Homo sapiens)", 6.24],
  ["CC1=C(c2ncc(C)o2)C(c2ccsc2)NC(=O)N1 (racemic)", "Adenosine receptor A2b (Homo sapiens)", 5.95],
  ["CC1=C(C(=O)OCC(C)C)C(c2ccoc2)NC(=O)N1 (racemic)", "Adenosine receptor A2b (Homo sapiens)", 6.49],
  ["CC1=C(C(=O)CC(C)C)C(c2ccoc2)NC(=O)N1 (racemic)", "Adenosine receptor A2b (Homo sapiens)", 6.00],
  ["CC1=C(C(=O)OCC2CC2)C(c2ccoc2)NC(=O)N1 (racemic)", "Adenosine receptor A2b (Homo sapiens)", 6.37],
  ["CCC(C)OC(=O)C1=C(C)NC(=O)NC1c1ccco1 (racemic)", "Adenosine receptor A2b (Homo sapiens)", 7.07],
  ["CC1=C(C(=O)OC2CCC2)C(c2ccco2)NC(=O)N1 (racemic)", "Adenosine receptor A2b (Homo sapiens)", 7.02],
  ["CC1=C(C(=O)OC(C)C)[C@@H](c2ccco2)NC(=S)N1", "Adenosine receptor A2b (Homo sapiens)", 8.20],
  ["CC1=C(C(=O)OCC2CC2)C(c2ccco2)NC(=O)N1 (racemic)", "Adenosine receptor A2b (Homo sapiens)", 6.86],
  ["CC1=C(C(=O)OCC2CC2)C(c2ccsc2)NC(=O)N1 (racemic)", "Adenosine receptor A2b (Homo sapiens)", 6.14],
  ["CC1=C(C(=O)OC2CCCC2)C(c2ccoc2)NC(=O)N1 (racemic)", "Adenosine receptor A2b (Homo sapiens)", 6.00],
  ["CC1=C(C(=O)OC(C)(C)C)C(c2ccoc2)NC(=O)N1 (racemic)", "Adenosine receptor A2b (Homo sapiens)", 5.35],
  ["CC1=C(C(=O)OCC(C)C)C(c2ccsc2)NC(=O)N1 (racemic)", "Adenosine receptor A2b (Homo sapiens)", 5.93],
  ["CC1=C(C(=O)OC2CCC2)C(c2cccs2)NC(=O)N1 (racemic)", "Adenosine receptor A2b (Homo sapiens)", 5.96]
]}
